# Experimental Target: Phosphodiesterase; PDE3 & PDE4 (Homo sapiens) (UniProt P27815+Q14432+Q08499+Q07343+Q13370+Q08493)
# Test Name: Inhibitory activity toward Phosphodiesterase isolated from rabbit lung
# Format: protein assay
# Condition Details: Oryctolagus cuniculus; target entry is the homologue from another species
Answer N if Inhibitory activity is under 1, and Y if it is 1 or more.

{"Test Smiles": "CCN(CC)c1cc(C)nc2nc(SCc3ccccc3)nn12", "Group": "Y"}
{"Test Smiles": "CSc1nc2nc(C)cc(C)n2n1", "Group": "N"}
{"Test Smiles": "CCCNc1c(C(=O)OCC)cnc2nc(SCc3ccccc3)nn12", "Group": "Y"}
{"Test Smiles": "Cc1ccc(CSc2nc3nc(C)cc(C)n3n2)cc1", "Group": "N"}
{"Test Smiles": "Cc1cccc(CSc2nc3nc(C)cc(C)n3n2)c1", "Group": "Y"}
{"Test Smiles": "Cc1cc(NN)n2nc(SCc3ccccc3)nc2n1", "Group": "Y"}
{"Test Smiles": "CCOC(=O)c1cnc2nc(SCc3ccccc3)nn2c1O", "Group": "N"}
{"Test Smiles": "Cc1cc(O)n2nc(SCc3ccccc3)nc2n1", "Group": "N"}
{"Test Smiles": "Cc1cc(C)n2nc(SCc3cccnc3)nc2n1", "Group": "Y"}
{"Test Smiles": "Cc1cc(C)n2nc(SCc3ccccc3)nc2n1", "Group": "Y"}
{"Test Smiles": "Cc1cc(N2CCOCC2)n2nc(SCc3ccccc3)nc2n1", "Group": "Y"}
{"Test Smiles": "Cc1cc(Cl)n2nc(SCc3ccccc3)nc2n1", "Group": "Y"}
{"Test Smiles": "Cc1cc(C)n2nc(SCC(C)C)nc2n1", "Group": "N"}

These entries and their values trace back to ChEMBL document CHEMBL1122040.
